# Test system: GRANTA519
# Experiment: cells
# Parameters: Cell growth inhibition, sulforhodamine B total protein staining
# Condition info: Homo sapiens, Granta-519; 72 h growth; read-out: Cell growth inhibition IC50/µM

- Molecule: "CCOC(=O)Cn1c2c(c3ccccc31)C[C@@H]1C[C@H]2C(OC)CN1C(=O)c1cccnc1SC (single isomer, unassigned; (+)) [(+)-5a, Glupin]"
  IC50: "> 30 µM"

====

# Test system: CHO
# Experiment: cells
# Set-up: 2-deoxyglucose uptake inhibition, resazurin/diaphorase, mock-transfected CHO cells
# Condition info: Cricetulus griseus, 0.5 h, pCMV-SPORT6, 2DG uptake, empty vector

- Compound: "CCOC(=O)Cn1c2c(c3ccccc31)C[C@@H]1C[C@H]2C(OC)CN1C(=O)c1cccnc1SC (single isomer, unassigned; (+)) [(+)-5a, Glupin]"
  IC50: "19.1 nM"

====

# Test system: MT3
# Experiment: cells
# Design: Cell growth inhibition, sulforhodamine B total protein staining
# Condition info: MT-3; 72 h growth; read-out: Cell growth inhibition IC50/µM
# Protocol: Cell panel profiling A panel of 94 cell lines was exposed to Glupin for 72 h to assess the influence on cell growth (Oncolead, Germany). Cell growth was determined using sulforhodamine B assay. Measurements were performed using a total protein staining protocol. […] Sensitivity to Glupin was detected across various tissue types (Table S6).

- Compound: "CCOC(=O)Cn1c2c(c3ccccc31)C[C@@H]1C[C@H]2C(OC)CN1C(=O)c1cccnc1SC (single isomer, unassigned; (+)) [(+)-5a, Glupin]"
  IC50: "2.54 µM"

====

# Test system: SKLMS1
# Experiment: cells
# Set-up: Cell growth inhibition, sulforhodamine B total protein staining
# Condition info: Homo sapiens, SK-LMS-1; 72 h growth; read-out: Cell growth inhibition IC50/µM
Assay endpoint: IC50 (µM)

- Molecule: "CCOC(=O)Cn1c2c(c3ccccc31)C[C@@H]1C[C@H]2C(OC)CN1C(=O)c1cccnc1SC (single isomer, unassigned; (+)) [(+)-5a, Glupin]"
  Numeric result: 0.699

====

# System: RAMOS
# Experiment: cells
# Parameters: Cell growth inhibition, sulforhodamine B total protein staining
# Condition info: Homo sapiens, Ramos; 72 h growth; read-out: Cell growth inhibition IC50/µM

- Compound: "CCOC(=O)Cn1c2c(c3ccccc31)C[C@@H]1C[C@H]2C(OC)CN1C(=O)c1cccnc1SC (single isomer, unassigned; (+)) [(+)-5a, Glupin]"
  IC50, µM: 0.212

====

# Tested on: OVCAR4
# Experiment: cells
# Set-up: Cell growth inhibition, sulforhodamine B total protein staining
# Condition info: Homo sapiens, OVCAR-4; 72 h growth; read-out: Cell growth inhibition IC50/µM

- Compound: "CCOC(=O)Cn1c2c(c3ccccc31)C[C@@H]1C[C@H]2C(OC)CN1C(=O)c1cccnc1SC (single isomer, unassigned; (+)) [(+)-5a, Glupin]"
  Unit: "µM"
  IC50: 1.41

====

# System: C33A
# Experiment: cells
# Set-up: Cell growth inhibition, sulforhodamine B total protein staining
# Condition info: Homo sapiens, C-33-A; 72 h growth; read-out: Cell growth inhibition IC50/µM
Assay endpoint: IC50 (µM)

- Compound: "CCOC(=O)Cn1c2c(c3ccccc31)C[C@@H]1C[C@H]2C(OC)CN1C(=O)c1cccnc1SC (single isomer, unassigned; (+)) [(+)-5a, Glupin]"
  Numeric result: 1.5

====

# Test system: GLUT-3 (Homo sapiens, UniProt P11169)
# Sequence (P11169 whole entry): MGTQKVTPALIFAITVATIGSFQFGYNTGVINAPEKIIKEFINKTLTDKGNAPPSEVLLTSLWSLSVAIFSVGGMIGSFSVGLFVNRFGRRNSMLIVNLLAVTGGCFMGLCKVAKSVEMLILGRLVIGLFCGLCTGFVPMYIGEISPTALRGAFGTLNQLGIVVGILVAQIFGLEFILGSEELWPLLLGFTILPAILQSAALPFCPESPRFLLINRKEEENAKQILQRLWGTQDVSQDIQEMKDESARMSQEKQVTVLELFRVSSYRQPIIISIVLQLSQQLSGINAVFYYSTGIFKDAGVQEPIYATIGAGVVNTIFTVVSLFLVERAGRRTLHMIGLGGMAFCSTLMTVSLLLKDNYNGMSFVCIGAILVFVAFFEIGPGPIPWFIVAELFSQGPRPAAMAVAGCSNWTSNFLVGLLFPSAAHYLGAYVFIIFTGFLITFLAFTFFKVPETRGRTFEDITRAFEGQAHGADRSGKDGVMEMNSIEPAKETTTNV
# Experiment: CETSA/thermal proteome profiling in SW480 lysate (ΔTm […] °C by MS, […] °C by immunoblot, […]); 2DG uptake IC50 in DLD-1 GLUT1(-/-) cells; shift on GLUT-3 overexpression in CHO
pIC50: −log10 of the molar value.
Assay endpoint: pIC50

- Molecule: "CCOC(=O)Cn1c2c(c3ccccc31)C[C@@H]1C[C@H]2C(OC)CN1C(=O)c1cccnc1SC (single isomer, unassigned; (+)) [(+)-5a, Glupin]"
  Assay endpoint: "pIC50"
  Numeric result: 7.94

====

# Test system: CHO
# Construct: transiently transfected with plasmid
# Experiment: cells
# Set-up: 2DG uptake in transfected CHO cells, resazurin/diaphorase fluorescence
# Condition info: Cricetulus griseus, 0.5 h, pTCN-GLUT4
# Experimental: Transient overexpression of GLUT-1-4 in CHO cells and 2DG assay[7] 1x10^6 CHO cells were seeded 10 cm cell culture plates. […] After incubation for 48 h cells were either reseeded (40,000 cell/well) in 96-well plates for monitoring glucose uptake or cells were directly lysed and protein expression was subsequently analysed by means of immunoblotting. […] After incubation for 2 h at room temperature, fluorescence intensity was measured at ex/em 530/590 nm using a Tecan M200 plate reader. […]
pIC50: −log10 of the molar value.
Assay endpoint: pIC50

- Molecule: "CCOC(=O)Cn1c2c(c3ccccc31)C[C@@H]1C[C@H]2C(OC)CN1C(=O)c1cccnc1SC (single isomer, unassigned; (+)) [(+)-5a, Glupin]"
  Assay endpoint: "pIC50"
  Numeric result: 7.72

====

# Test system: THP1
# Experiment: cells
# Parameters: Cell growth inhibition, sulforhodamine B total protein staining
# Condition info: Homo sapiens, THP-1; 72 h growth; read-out: Cell growth inhibition IC50/µM

- Molecule: "CCOC(=O)Cn1c2c(c3ccccc31)C[C@@H]1C[C@H]2C(OC)CN1C(=O)c1cccnc1SC (single isomer, unassigned; (+)) [(+)-5a, Glupin]"
  IC50: "> 30 µM"

====

# System: HEPG2
# Experiment: cells
# Design: Cell growth inhibition, sulforhodamine B total protein staining
# Condition info: Homo sapiens, HepG2; 72 h growth; read-out: Cell growth inhibition IC50/µM

- Molecule: "CCOC(=O)Cn1c2c(c3ccccc31)C[C@@H]1C[C@H]2C(OC)CN1C(=O)c1cccnc1SC (single isomer, unassigned; (+)) [(+)-5a, Glupin]"
  IC50: "> 30 µM"

====

# Tested on: TE671
# Experiment: cells
# Set-up: Cell growth inhibition, sulforhodamine B total protein staining
# Condition info: Homo sapiens, TE-671; 72 h growth; read-out: Cell growth inhibition IC50/µM
Assay endpoint: IC50 (µM)

- Compound: "CCOC(=O)Cn1c2c(c3ccccc31)C[C@@H]1C[C@H]2C(OC)CN1C(=O)c1cccnc1SC (single isomer, unassigned; (+)) [(+)-5a, Glupin]"
  Assay endpoint: "IC50"
  Unit: "µM"
  Numeric result: 0.299

====

# Tested on: U2OS
# Experiment: cells
# Set-up: Cell growth inhibition, sulforhodamine B total protein staining
# Condition info: Homo sapiens, U2OS; 72 h growth; read-out: Cell growth inhibition IC50/µM

- Molecule: "CCOC(=O)Cn1c2c(c3ccccc31)C[C@@H]1C[C@H]2C(OC)CN1C(=O)c1cccnc1SC (single isomer, unassigned; (+)) [(+)-5a, Glupin]"
  Unit: "µM"
  IC50: 0.502

====

# Test system: BT20
# Experiment: cells
# Parameters: Cell growth inhibition, sulforhodamine B total protein staining
# Condition info: Homo sapiens, BT-20; 72 h growth; read-out: Cell growth inhibition IC50/µM
Assay endpoint: IC50

- Molecule: "CCOC(=O)Cn1c2c(c3ccccc31)C[C@@H]1C[C@H]2C(OC)CN1C(=O)c1cccnc1SC (single isomer, unassigned; (+)) [(+)-5a, Glupin]"
  Assay endpoint: "IC50"
  Result: "> 30 µM"

====

# Test system: MHHES1
# Experiment: cells
# Set-up: Cell growth inhibition, sulforhodamine B total protein staining
# Condition info: Homo sapiens, MHH-ES-1; 72 h growth; read-out: Cell growth inhibition IC50/µM
Assay endpoint: IC50 (µM)

- Compound: "CCOC(=O)Cn1c2c(c3ccccc31)C[C@@H]1C[C@H]2C(OC)CN1C(=O)c1cccnc1SC (single isomer, unassigned; (+)) [(+)-5a, Glupin]"
  Assay endpoint: "IC50"
  Numeric result: 1.49

====

# System: SKNSH
# Experiment: cells
# Design: Cell growth inhibition, sulforhodamine B total protein staining
# Condition info: Homo sapiens, SK-N-SH; 72 h growth; read-out: Cell growth inhibition IC50/µM

- Molecule: "CCOC(=O)Cn1c2c(c3ccccc31)C[C@@H]1C[C@H]2C(OC)CN1C(=O)c1cccnc1SC (single isomer, unassigned; (+)) [(+)-5a, Glupin]"
  IC50, µM: 0.084

====

# System: SKBR3
# Experiment: cells
# Parameters: Cell growth inhibition, sulforhodamine B total protein staining
# Condition info: Homo sapiens, SK-BR-3; 72 h growth; read-out: Cell growth inhibition IC50/µM
Assay endpoint: IC50

- Molecule: "CCOC(=O)Cn1c2c(c3ccccc31)C[C@@H]1C[C@H]2C(OC)CN1C(=O)c1cccnc1SC (single isomer, unassigned; (+)) [(+)-5a, Glupin]"
  Result: "> 30 µM"

====

# Test system: PBMC
# Experiment: cells
# Design: Cell growth inhibition, sulforhodamine B total protein staining
# Condition info: PBMC; 72 h growth; read-out: Cell growth inhibition IC50/µM

- Compound: "CCOC(=O)Cn1c2c(c3ccccc31)C[C@@H]1C[C@H]2C(OC)CN1C(=O)c1cccnc1SC (single isomer, unassigned; (+)) [(+)-5a, Glupin]"
  IC50: "> 30 µM"

The values you see were collected from paper PMC6900016.
